System: CCRF-CEM
ASSAY_INFO: Selectivity ratio of IC50 for human CEM/ADR5000 cells to IC50 for human CCRF-CEM cells
Type: functional
Rule: Ratio IC50 under 0.7 gives not met, otherwise met.

1. C[C@@H]1CC[C@H]2[C@@H](C)C(=O)O[C@@H]3O[C@@]4(C)CC[C@@H]1[C@]32OO4 [ARTEMISININ] :: met
2. C[C@H]1[C@H](OC(=O)CCC(=O)NCCCNC(=O)CCC(=O)O[C@@H]2O[C@@H]3O[C@@]4(C)CC[C@H]5[C@H](C)CC[C@@H]([C@H]2C)[C@@]35OO4)O[C@@H]2O[C@@]3(C)CC[C@H]4[C@H](C)CC[C@@H]1[C@@]24OO3 :: not met
3. COc1cccc2c1C(=O)c1c(O)c3c(c(O)c1C2=O)C[C@@](O)(C(=O)CO)C[C@@H]3O[C@H]1C[C@H](N)[C@H](O)[C@H](C)O1 [DOXORUBICIN] :: met
4. C[C@H]1[C@H](OC(=O)CCC(=O)NCCCCCCCCNC(=O)CCC(=O)O[C@@H]2O[C@@H]3O[C@@]4(C)CC[C@H]5[C@H](C)CC[C@@H]([C@H]2C)[C@@]35OO4)O[C@@H]2O[C@@]3(C)CC[C@H]4[C@H](C)CC[C@@H]1[C@@]24OO3 :: met
5. C[C@H]1[C@H](OC(=O)CCC(=O)NCC(O)CNC(=O)CCC(=O)O[C@@H]2O[C@@H]3O[C@@]4(C)CC[C@H]5[C@H](C)CC[C@@H]([C@H]2C)[C@@]35OO4)O[C@@H]2O[C@@]3(C)CC[C@H]4[C@H](C)CC[C@@H]1[C@@]24OO3 (some centres not stated) :: not met
6. C[C@H]1[C@H](OC(=O)CCC(=O)O)O[C@@H]2O[C@@]3(C)CC[C@H]4[C@H](C)CC[C@@H]1[C@@]24OO3 [ARTESUNATE] :: not met
7. C[C@H]1[C@H](OC(=O)CCC(=O)NCc2cccc(CNC(=O)CCC(=O)O[C@@H]3O[C@@H]4O[C@@]5(C)CC[C@H]6[C@H](C)CC[C@@H]([C@H]3C)[C@@]46OO5)c2)O[C@@H]2O[C@@]3(C)CC[C@H]4[C@H](C)CC[C@@H]1[C@@]24OO3 :: met
